molecular target: NEDD8 activating enzyme (Homo sapiens); experiment: Inhibition of NAE (unknown origin) using GST-tagged Ubc12 and Flag-tagged Nedd8 measured after 2 hrs by TR-FRET assay
Sequence (Q8TBC4 whole entry): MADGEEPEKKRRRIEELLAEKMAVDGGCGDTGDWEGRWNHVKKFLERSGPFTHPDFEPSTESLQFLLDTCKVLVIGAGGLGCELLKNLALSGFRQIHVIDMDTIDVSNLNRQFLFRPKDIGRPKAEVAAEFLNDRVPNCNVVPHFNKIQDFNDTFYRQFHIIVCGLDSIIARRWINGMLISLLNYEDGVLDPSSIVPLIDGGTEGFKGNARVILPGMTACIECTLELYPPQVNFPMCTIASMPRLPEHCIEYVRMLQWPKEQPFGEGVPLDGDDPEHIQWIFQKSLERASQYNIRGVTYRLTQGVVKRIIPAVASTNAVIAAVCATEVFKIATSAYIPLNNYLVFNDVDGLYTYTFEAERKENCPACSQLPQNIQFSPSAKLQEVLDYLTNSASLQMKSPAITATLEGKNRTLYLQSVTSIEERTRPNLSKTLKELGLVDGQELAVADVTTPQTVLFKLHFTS
Sequence (Q13564 whole entry, further chain): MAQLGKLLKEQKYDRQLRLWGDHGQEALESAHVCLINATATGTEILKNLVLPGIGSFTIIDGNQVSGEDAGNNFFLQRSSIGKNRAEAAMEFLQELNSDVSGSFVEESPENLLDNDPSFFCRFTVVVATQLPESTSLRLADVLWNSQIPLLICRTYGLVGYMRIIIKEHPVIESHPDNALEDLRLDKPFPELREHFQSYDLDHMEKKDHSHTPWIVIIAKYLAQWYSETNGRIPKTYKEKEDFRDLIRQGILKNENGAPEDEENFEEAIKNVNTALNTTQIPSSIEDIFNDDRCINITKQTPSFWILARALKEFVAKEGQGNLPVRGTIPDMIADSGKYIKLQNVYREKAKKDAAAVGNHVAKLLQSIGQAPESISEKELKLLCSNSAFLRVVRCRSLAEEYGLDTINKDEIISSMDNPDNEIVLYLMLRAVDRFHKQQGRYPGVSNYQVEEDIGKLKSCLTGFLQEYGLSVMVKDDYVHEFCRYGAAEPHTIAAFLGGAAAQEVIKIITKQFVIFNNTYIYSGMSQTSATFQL
recorded_metric: IC50 (nM)
Report the figure in nM without appending any unit label.

chemical_string=NS(=O)(=O)OC[C@H]1C[C@@H](Nc2ncncc2C(=O)c2cn(Cc3ccc(S(F)(F)(F)(F)F)cc3)c3ccc(F)cc23)[C@H](O)[C@@H]1O unit_label=nM reading=10
chemical_string=Cc1c(Cn2cc(C(=O)c3cncnc3N[C@@H]3C[C@H](COS(N)(=O)=O)[C@@H](O)[C@H]3O)c3cc(F)ccc32)cccc1C(F)(F)F unit_label=nM reading=112
chemical_string=NS(=O)(=O)OC[C@H]1C[C@@H](Nc2ncncc2C(=O)c2cn(Cc3cccc(C(F)(F)F)c3)c3ccccc23)[C@H](O)[C@@H]1O unit_label=nM reading=12
chemical_string=NS(=O)(=O)OC[C@H]1C[C@@H](Nc2ncncc2C(=O)c2cn(Cc3cccc(Cl)c3)c3ccccc23)[C@H](O)[C@@H]1O unit_label=nM reading=19
chemical_string=NS(=O)(=O)OC[C@H]1C[C@@H](Nc2ncncc2C(=O)c2cn(Cc3ccccc3)c3ccccc23)[C@H](O)[C@@H]1O unit_label=nM reading=5

(Q) Determine its reported IC50: COc1cccc(Cn2cc(C(=O)c3cncnc3N[C@@H]3C[C@H](COS(N)(=O)=O)[C@@H](O)[C@H]3O)c3ccccc32)c1
(A) 22

(Q) Consider the molecule NS(=O)(=O)OC[C@H]1C[C@@H](Nc2ncncc2C(=O)c2cn(Cc3cccc(F)c3)c3ccccc23)[C@H](O)[C@@H]1O . State its measured IC50.
(A) 91

----------
target: SUMO-activating enzyme (Homo sapiens, UniProt Q9UBT2); test: Inhibition of SAE (unknown origin) using recombinant His-tagged human SUMO1 measured after 2 hrs by HTRF assay
Sequence (Q9UBE0 whole entry): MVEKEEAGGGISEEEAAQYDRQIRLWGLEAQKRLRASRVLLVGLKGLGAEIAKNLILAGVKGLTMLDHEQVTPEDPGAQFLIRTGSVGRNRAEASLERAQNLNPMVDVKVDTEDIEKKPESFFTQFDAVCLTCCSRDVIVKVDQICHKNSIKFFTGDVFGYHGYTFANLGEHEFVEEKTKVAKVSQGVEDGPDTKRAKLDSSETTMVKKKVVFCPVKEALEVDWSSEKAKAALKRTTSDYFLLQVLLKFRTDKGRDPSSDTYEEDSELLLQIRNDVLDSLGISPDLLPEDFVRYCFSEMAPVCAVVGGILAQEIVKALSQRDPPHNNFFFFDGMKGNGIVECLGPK
Sequence (Q9UBT2 whole entry): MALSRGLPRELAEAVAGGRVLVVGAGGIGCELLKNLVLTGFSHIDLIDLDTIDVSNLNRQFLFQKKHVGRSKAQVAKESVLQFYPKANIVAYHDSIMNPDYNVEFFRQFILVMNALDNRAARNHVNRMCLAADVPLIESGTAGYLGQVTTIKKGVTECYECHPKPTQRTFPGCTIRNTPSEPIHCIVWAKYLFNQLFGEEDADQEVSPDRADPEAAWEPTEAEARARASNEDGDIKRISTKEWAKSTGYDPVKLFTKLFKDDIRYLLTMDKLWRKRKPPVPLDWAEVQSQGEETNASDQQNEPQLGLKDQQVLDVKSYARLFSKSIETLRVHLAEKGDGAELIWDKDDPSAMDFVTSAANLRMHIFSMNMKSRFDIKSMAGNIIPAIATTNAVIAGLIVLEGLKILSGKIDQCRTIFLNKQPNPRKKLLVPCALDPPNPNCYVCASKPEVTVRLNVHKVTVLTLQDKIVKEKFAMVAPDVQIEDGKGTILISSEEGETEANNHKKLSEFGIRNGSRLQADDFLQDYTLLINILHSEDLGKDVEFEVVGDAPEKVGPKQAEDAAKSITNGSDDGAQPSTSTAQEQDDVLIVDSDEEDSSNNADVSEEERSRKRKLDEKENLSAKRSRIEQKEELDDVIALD
The reader will find reported log10(IC50) values listed item by item below.
Scale: decimal log of IC50, IC50 in nM.

compound=Cc1c(Cn2cc(C(=O)c3cncnc3N[C@@H]3C[C@H](COS(N)(=O)=O)[C@@H](O)[C@H]3O)c3cc(F)ccc32)cccc1C(F)(F)F study_system="SUMO-activating enzyme (Homo sapiens, UniProt Q9UBT2)" recorded_metric=log10(IC50) reading=3.00
compound=NS(=O)(=O)OC[C@H]1C[C@@H](Nc2ncncc2C(=O)c2nn(Cc3cccc(Br)c3)c3ccccc23)[C@H](O)[C@@H]1O study_system="SUMO-activating enzyme (Homo sapiens, UniProt Q9UBT2)" recorded_metric=log10(IC50) reading=3.23
compound=NS(=O)(=O)OC[C@H]1C[C@@H](Nc2ncncc2C(=O)c2cn(Cc3ccc(F)cc3F)c3ccccc23)[C@H](O)[C@@H]1O study_system="SUMO-activating enzyme (Homo sapiens, UniProt Q9UBT2)" recorded_metric=log10(IC50) reading=1.48
compound=NS(=O)(=O)OC[C@H]1C[C@@H](Nc2ncncc2C(=O)c2cn(Cc3cccc(Br)c3)c3ncccc23)[C@H](O)[C@@H]1O study_system="SUMO-activating enzyme (Homo sapiens, UniProt Q9UBT2)" recorded_metric=log10(IC50) reading=2.82
compound=NS(=O)(=O)OC[C@H]1C[C@@H](Nc2ncncc2C(=O)c2cn(Cc3ccc(C(F)(F)F)o3)c3ccccc23)[C@H](O)[C@@H]1O study_system="SUMO-activating enzyme (Homo sapiens, UniProt Q9UBT2)" recorded_metric=log10(IC50) reading=3.11
compound=NS(=O)(=O)OC[C@H]1C[C@@H](Nc2ncncc2C(=O)c2cn(Cc3cccc(I)c3)c3ccccc23)[C@H](O)[C@@H]1O study_system="SUMO-activating enzyme (Homo sapiens, UniProt Q9UBT2)" recorded_metric=log10(IC50) reading=2.67
compound=Cc1cccc(Cn2cc(C(=O)c3cncnc3N[C@@H]3C[C@H](COS(N)(=O)=O)[C@@H](O)[C@H]3O)c3cc(F)ccc32)c1 study_system="SUMO-activating enzyme (Homo sapiens, UniProt Q9UBT2)" recorded_metric=log10(IC50) reading=2.83
compound=NS(=O)(=O)OC[C@H]1C[C@@H](Nc2ncncc2C(=O)c2cn(Cc3cccc(Cl)c3)c3ccccc23)[C@H](O)[C@@H]1O study_system="SUMO-activating enzyme (Homo sapiens, UniProt Q9UBT2)" recorded_metric=log10(IC50) reading=2.66

(Q) GET log10(IC50) | system: SUMO-activating enzyme (Homo sapiens, UniProt Q9UBT2) | item: NS(=O)(=O)OC[C@H]1C[C@@H](Nc2ncncc2C(=O)c2cn(Cc3cccc(Br)c3)c3ccccc23)[C@H](O)[C@@H]1O
(A) 2.00

(Q) Report log10(IC50) under test system SUMO-activating enzyme (Homo sapiens, UniProt Q9UBT2) for C/C=C/Cn1cc(C(=O)c2cncnc2NC2C[C@H](COS(N)(=O)=O)[C@@H](O)[C@H]2O)c2ccccc21 (single isomer, unassigned) .
(A) 3.27

----------
molecular target: SUMO-activating enzyme (Homo sapiens, UniProt Q9UBT2); test: Inhibition of SAE (unknown origin) using recombinant His-tagged human SUMO1 measured after 2 hrs by HTRF assay
recorded_metric: IC50 (µM)
Give your result in µM as a bare value.

Known results for compounds:
chemical_string=NS(=O)(=O)OC[C@H]1C[C@@H](Nc2ncncc2C(=O)c2cn(Cc3cccc(Br)c3)c3ccc(F)cc23)[C@H](O)[C@@H]1O recorded_metric=IC50 reading=0.53
chemical_string=NS(=O)(=O)OC[C@H]1C[C@@H](Nc2ncncc2C(=O)c2cn(Cc3ccccc3)c3ccccc23)[C@@H](F)[C@@H]1O recorded_metric=IC50 reading=1.84

(Q) Annotate the compound NS(=O)(=O)OC[C@H]1C[C@@H](Nc2ncncc2C(=O)c2cn(Cc3ccc(F)c(Cl)c3)c3ccccc23)[C@H](O)[C@@H]1O with its measured IC50.
(A) 1.6
